# RUN_DESCRIPTION: stimulators of nuclear beta-catenin in C2C12, primary screen, imaging, WNT3A-conditioned medium, mouse C2C12, NPC library (AID 1117326); further: reference of the scale not given here
# MEASUREMENT_PARAMETERS: at 10 µM, stronger effect = higher value
Residues, ends and D or L forms follow the SMILES beside them.
ENDPOINT_LABEL: nuclear beta-catenin stimulation (%)

>  <COMPOUND>
Oc1ccc(/C=C/c2cc(O)cc(O)c2)cc1

>  <OBS_VALUE>
2.4

$$$$
>  <COMPOUND>
CCCCC(O)/C=C(C)/C=C/C=C/C(=O)N1CCCC1=O (centres undefined)

>  <OBS_VALUE>
-1

$$$$
>  <COMPOUND>
CCNC(=O)NCCCOc1cccc(CN2CCCCC2)c1

>  <OBS_VALUE>
-0.4

$$$$
>  <COMPOUND>
C[C@@H](O)[C@H]1C(=O)N2C(C(=O)O)=C([C@H]3CCCO3)S[C@H]12

>  <OBS_VALUE>
0.5

$$$$
>  <COMPOUND>
CN(C)c1ccc(O)c2c1C[C@H]1C[C@H]3[C@H](N(C)C)C(=O)C(C(N)=O)=C(O)[C@@]3(O)C(=O)C1=C2O

>  <OBS_VALUE>
3.7

$$$$
>  <COMPOUND>
Cc1oc(=O)oc1COC(=O)[C@@H]1N2C(=O)[C@@H](NC(=O)[C@H](N)c3ccccc3)[C@H]2SC1(C)C

>  <OBS_VALUE>
0.5

$$$$
>  <COMPOUND>
CC(=O)c1ccc(O)c(C(N)=O)c1

>  <OBS_VALUE>
0.2

$$$$
>  <COMPOUND>
Cc1ccc(S(=O)(=O)NC(=O)NN2CCCCCC2)cc1

>  <OBS_VALUE>
0.5

$$$$
>  <COMPOUND>
Cc1ccc(O)c(-n2nc3ccccc3n2)c1

>  <OBS_VALUE>
-0.7

$$$$
>  <COMPOUND>
C=Cc1ccccc1

>  <OBS_VALUE>
-2.1

$$$$
>  <COMPOUND>
OC1(c2ccc(Cl)cc2)CCNCC1

>  <OBS_VALUE>
-0.1

$$$$
>  <COMPOUND>
CCn1ccc(NS(=O)(=O)c2ccc(N)cc2)nc1=O

>  <OBS_VALUE>
1.9

$$$$
>  <COMPOUND>
NS(=O)(=O)c1cc2c(cc1Cl)NCNS2(=O)=O

>  <OBS_VALUE>
0.4

$$$$
>  <COMPOUND>
CN=C(NC#N)NCCSCc1nc[nH]c1C

>  <OBS_VALUE>
0.2

$$$$
>  <COMPOUND>
C[C@H]1C[C@H](O)c2ccsc2S1(=O)=O

>  <OBS_VALUE>
0.6

$$$$
>  <COMPOUND>
COc1cccc(CCc2ccccc2OCC(CN(C)C)OC(=O)CCC(=O)O)c1 (centres undefined)

>  <OBS_VALUE>
-0.6

$$$$
>  <COMPOUND>
CC(C)=CCNc1ncnc2c1ncn2[C@@H]1O[C@H](CO)[C@@H](O)[C@H]1O

>  <OBS_VALUE>
4.6

$$$$
>  <COMPOUND>
CC(=O)N[C@@H](CO)C(=O)N[C@@H](CC(=O)O)C(=O)N[C@@H](CCCCN)C(=O)N1CCC[C@H]1C(=O)O (Ac-SDKP-OH)

>  <OBS_VALUE>
0.3

$$$$
>  <COMPOUND>
OC[C@H]1O[C@@H]2O[C@H]3[C@H](O)[C@@H](O)[C@@H](O[C@H]4[C@H](O)[C@@H](O)[C@@H](O[C@H]5[C@H](O)[C@@H](O)[C@@H](O[C@H]6[C@H](O)[C@@H](O)[C@@H](O[C@H]7[C@H](O)[C@@H](O)[C@@H](O[C@H]8[C@H](O)[C@@H](O)[C@@H](O[C@H]1[C@H](O)[C@H]2O)O[C@@H]8CO)O[C@@H]7CO)O[C@@H]6CO)O[C@@H]5CO)O[C@@H]4CO)O[C@@H]3CO

>  <OBS_VALUE>
0.1

$$$$

Attribution: PubChem BioAssay
